Target desc: coagulation factor IX / activated coagulation factor IX (human), P00740
Sequence (P00740 47-461): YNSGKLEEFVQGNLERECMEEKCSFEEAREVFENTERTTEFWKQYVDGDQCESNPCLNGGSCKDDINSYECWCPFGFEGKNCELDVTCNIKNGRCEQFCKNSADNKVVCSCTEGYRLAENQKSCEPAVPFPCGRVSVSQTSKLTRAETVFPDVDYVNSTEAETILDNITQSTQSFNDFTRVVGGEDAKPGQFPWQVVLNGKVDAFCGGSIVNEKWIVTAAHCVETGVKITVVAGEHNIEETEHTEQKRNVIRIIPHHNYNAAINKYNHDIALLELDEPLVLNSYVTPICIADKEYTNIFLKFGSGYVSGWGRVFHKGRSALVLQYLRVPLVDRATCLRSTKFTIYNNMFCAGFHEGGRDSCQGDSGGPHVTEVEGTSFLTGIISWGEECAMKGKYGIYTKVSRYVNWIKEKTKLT
Method: cell-based or functional assay
Measurement type: reduction of coagulation time against no antibody

Recorded result, bispecific antibody of A69H, B26H and hybrid L chain BBa (bispecific antibody, V domains shown) VH 1: MEVQLQQSGAELVKPGASVKLSCTASGFNIKDYYMHWIKQRPGQGLEWLGYINPSSGYTKYNRKFRDKATLTADKSSSTAYMQLTSLTYEDSAVYYCARGGNGYYLDYWGQGTTLTVSS VH 2: MQVQLQQSGPELVKPGASVKISCKASGYTFTDNNMDWVKQSHGKGLEWIGDINTKSGGSIYNQKFKGKATLTIDKSSSTAYMELRSLTSEDTAVYYCARRRSYGYYFDYWGQGTTLTVSS VL: DIVMTQSHKFMSTSIGDRVSITCKASQNVGTAVAWYQQKPGQSPKLLIYSASYRYSGVPDRFTGSRYGTDFTLTISNVQSEDLADYLCQQYSSYLTFGGGTKLELKR , reduction of coagulation time against no antibody: > 80 s
